# procedure summary: Efflux ratio of apparent permeability from in human Caco2 cells at 10 uM after 2 hrs by LC-MS/MS analysis
# Type: ADME, cell-based
# cond: Caco-2
measurement kind: efflux ratio at 2 h, 10 µM
Would you mind answering with just the numeric figure?

// query Can you share its efflux ratio at 2 h, 10 µM? I mean this molecule: COC(=O)c1ccccc1-c1c2ccc(=N)cc-2oc2cc(N)ccc12.Cl
// result 6.5

###

# target or system: Histone deacetylase 11 (Homo sapiens, UniProt Q96DB2)
# Sequence (Q96DB2 whole entry): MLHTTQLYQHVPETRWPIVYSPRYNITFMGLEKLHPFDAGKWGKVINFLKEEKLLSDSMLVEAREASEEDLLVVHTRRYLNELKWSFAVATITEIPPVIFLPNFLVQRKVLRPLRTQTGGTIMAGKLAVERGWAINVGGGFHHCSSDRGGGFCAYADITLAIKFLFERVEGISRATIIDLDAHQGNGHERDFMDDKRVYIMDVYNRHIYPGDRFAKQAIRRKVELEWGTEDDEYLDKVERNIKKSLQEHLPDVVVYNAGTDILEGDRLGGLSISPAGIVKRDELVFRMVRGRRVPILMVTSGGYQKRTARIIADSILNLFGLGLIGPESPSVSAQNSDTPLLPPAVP
# procedure summary: Inhibition of recombinant human N-terminal Strep2-tagged HDAC11 (1 to 347 residues) expressed in baculovirus infected insect cells using Boc-Lys(TFA)-AMC as substrate after 60 mins by fluorescence assay
measurement kind: IC50 (nM)
Numbers only here, please. The scale is nM.

// query Can you share its IC50? I mean this compound: O=C(NO)c1ccc(CNc2cccc3ncccc23)cc1
// result 1000

// query Can you share its IC50? I mean this compound: O=C(NO)c1ccc(CNc2cccc3cccnc23)cc1
// result 376

###

# target or system: UniProt Q9UQL6
# Sequence (Q9UQL6 whole entry, the tested form may be a part): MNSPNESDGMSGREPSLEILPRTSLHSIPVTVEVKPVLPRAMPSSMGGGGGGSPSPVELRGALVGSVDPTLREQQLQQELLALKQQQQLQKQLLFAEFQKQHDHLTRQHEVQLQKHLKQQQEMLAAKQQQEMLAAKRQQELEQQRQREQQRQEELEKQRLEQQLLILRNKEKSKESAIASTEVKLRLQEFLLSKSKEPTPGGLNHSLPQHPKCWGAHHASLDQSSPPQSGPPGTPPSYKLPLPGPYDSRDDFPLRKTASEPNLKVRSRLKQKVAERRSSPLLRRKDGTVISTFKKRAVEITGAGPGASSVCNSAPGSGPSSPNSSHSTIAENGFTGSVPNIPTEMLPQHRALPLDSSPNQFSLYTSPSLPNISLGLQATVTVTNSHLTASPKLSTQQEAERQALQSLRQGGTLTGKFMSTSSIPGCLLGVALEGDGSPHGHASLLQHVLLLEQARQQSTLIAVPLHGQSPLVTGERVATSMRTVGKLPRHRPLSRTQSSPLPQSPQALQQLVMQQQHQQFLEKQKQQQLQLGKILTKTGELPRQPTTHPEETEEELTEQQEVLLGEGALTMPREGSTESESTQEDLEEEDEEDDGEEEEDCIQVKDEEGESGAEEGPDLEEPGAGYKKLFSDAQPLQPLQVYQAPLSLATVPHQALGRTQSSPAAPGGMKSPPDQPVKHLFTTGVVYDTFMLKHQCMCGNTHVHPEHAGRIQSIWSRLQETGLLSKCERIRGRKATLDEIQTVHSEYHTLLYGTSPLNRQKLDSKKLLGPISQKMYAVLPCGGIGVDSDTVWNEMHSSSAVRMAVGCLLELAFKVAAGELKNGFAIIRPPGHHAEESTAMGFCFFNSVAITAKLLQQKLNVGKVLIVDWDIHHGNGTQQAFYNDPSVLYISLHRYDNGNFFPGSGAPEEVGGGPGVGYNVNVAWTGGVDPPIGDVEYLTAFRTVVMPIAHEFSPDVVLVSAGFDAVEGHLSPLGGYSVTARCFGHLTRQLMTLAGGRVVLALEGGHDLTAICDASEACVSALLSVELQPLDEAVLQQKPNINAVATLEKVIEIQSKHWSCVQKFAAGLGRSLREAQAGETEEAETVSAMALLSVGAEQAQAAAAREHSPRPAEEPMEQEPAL
# procedure summary: Inhibition of recombinant human C-terminal His-tagged HDAC5 (656 to 1122 residues) expressed in insect cells using Boc-K(Ac)-AMC as substrate after 60 mins by fluorescence assay
measurement kind: pIC50
Reminder that pIC50 is minus the log10 of a molar concentration.

// query Find pIC50 (UniProt Q9UQL6) for the entry O=C(NO)c1ccc(CNc2cccc3cccnc23)cc1
// result 5.51

// query Find pIC50 (UniProt Q9UQL6) for the entry O=C(NO)c1ccc(CNc2cccc3ncccc23)cc1
// result 5.65

###

# target or system: UniProt Q9UBN7
# Sequence (Q9UBN7 whole entry): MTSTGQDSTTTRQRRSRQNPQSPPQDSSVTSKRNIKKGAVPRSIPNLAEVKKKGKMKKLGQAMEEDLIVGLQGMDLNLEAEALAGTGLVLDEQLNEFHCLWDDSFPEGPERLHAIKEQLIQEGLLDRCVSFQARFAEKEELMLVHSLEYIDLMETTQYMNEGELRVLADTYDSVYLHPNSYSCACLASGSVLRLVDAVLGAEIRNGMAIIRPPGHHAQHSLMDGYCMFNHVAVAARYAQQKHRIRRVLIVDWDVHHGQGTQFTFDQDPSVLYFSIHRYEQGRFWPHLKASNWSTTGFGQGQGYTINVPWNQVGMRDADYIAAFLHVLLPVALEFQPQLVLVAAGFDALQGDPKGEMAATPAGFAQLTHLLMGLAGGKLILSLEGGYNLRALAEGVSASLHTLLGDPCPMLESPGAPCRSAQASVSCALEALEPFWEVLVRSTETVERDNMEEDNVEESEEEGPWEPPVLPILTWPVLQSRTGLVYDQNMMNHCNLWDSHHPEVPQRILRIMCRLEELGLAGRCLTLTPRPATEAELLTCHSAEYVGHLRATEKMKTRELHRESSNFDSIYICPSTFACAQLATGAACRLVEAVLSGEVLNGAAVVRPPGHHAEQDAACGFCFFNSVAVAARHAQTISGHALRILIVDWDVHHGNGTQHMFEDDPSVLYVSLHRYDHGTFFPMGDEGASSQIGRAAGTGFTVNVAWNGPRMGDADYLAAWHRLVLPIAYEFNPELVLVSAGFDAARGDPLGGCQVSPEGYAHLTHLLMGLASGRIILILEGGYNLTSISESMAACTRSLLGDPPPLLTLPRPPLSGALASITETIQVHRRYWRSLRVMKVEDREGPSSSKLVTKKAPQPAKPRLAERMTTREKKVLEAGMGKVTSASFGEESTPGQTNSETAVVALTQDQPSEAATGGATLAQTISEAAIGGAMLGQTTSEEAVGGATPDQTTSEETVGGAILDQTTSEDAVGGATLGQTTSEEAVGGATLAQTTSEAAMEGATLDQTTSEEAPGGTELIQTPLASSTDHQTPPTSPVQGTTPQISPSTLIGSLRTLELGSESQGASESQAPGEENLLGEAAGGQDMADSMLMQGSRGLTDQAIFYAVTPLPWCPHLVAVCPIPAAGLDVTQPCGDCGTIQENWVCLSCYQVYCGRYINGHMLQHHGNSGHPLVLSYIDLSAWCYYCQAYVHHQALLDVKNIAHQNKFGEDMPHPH
# procedure summary: Inhibition of full length recombinant human N-terminal GST-tagged HDAC6 expressed in baculovirus infected insect cells using RHK-K(Ac)-AMC as substrate after 90 mins by fluorescence assay
measurement kind: log10 IC50 (log10 of the value in nM)
Annotation: log10 of IC50, nM basis.

// query Find log10 IC50 (UniProt Q9UBN7) for the entry O=C(NO)c1ccc(CNc2cccc3ccncc23)cc1
// result 0.53

// query Find log10 IC50 (UniProt Q9UBN7) for the entry O=C(NO)c1ccc(CNc2cccc3cn[nH]c23)cc1
// result 0.55

// query Find log10 IC50 (UniProt Q9UBN7) for the entry O=C(NO)c1ccc(CNc2cnc3ccccc3c2)cc1
// result 2.61

// query Find log10 IC50 (UniProt Q9UBN7) for the entry O=C(/C=C/c1ccc(CNc2cccc3ncccc23)cc1)NO
// result 1.40

// query Find log10 IC50 (UniProt Q9UBN7) for the entry O=C(NO)c1ccc(C(=O)Nc2cccc3cccnc23)cc1
// result 2.42

// query Find log10 IC50 (UniProt Q9UBN7) for the entry O=C(NO)c1ccc(NCc2cccc3cccnc23)cc1
// result 0.87

// query Find log10 IC50 (UniProt Q9UBN7) for the entry O=C(NO)c1ccc(CNc2ccc3ccccc3n2)cc1
// result 0.63

// query Find log10 IC50 (UniProt Q9UBN7) for the entry O=C(NO)c1ccc(CNc2cccc3c2CCC3)cc1
// result 1.29

// query Find log10 IC50 (UniProt Q9UBN7) for the entry O=C(NO)c1ccc(CNc2cccc3cnccc23)cc1
// result 0.37

// query Find log10 IC50 (UniProt Q9UBN7) for the entry O=C(/C=C/c1ccc(CNc2cccc3cccnc23)cc1)NO
// result 1.62

// query Find log10 IC50 (UniProt Q9UBN7) for the entry O=C(NO)c1ccc(CCc2cccc3cccnc23)cc1
// result 1.62

// query Find log10 IC50 (UniProt Q9UBN7) for the entry O=C(NO)c1ccc(CNc2ccc3ncccc3c2)cc1
// result 0.68

###

# procedure summary: Antiproliferative activity against human HS5 cells after 48 hrs by SRB assay
# Assay type: cell-based
measurement kind: GI50 at 48 h

// query Can you share its GI50 at 48 h? I mean this compound: O=C(CCCCCCNC(=O)c1cnc(N(c2ccccc2)c2ccccc2)nc1)NO
// result > 100 µM

// query Can you share its GI50 at 48 h? I mean this compound: O=C(NO)c1ccc(CNc2cccc3cccnc23)cc1
// result > 100 µM

// query Can you share its GI50 at 48 h? I mean this compound: O=C(NO)c1ccc(CNc2cccc3ncccc23)cc1
// result > 100 µM

###

So I've got a bunch of compounds here, and I need their IC50 values.
# target or system: Protein deacetylase HDAC6 (Homo sapiens)
# procedure summary: Inhibition of full length recombinant human N-terminal GST-tagged HDAC6 expressed in baculovirus infected insect cells using RHK-K(Ac)-AMC as substrate after 90 mins by fluorescence assay
Numbers only here, please. The scale is nM.

// query Can you share its IC50? I mean this compound: Cc1ccc2cccc(NCc3ccc(C(=O)NO)cc3)c2n1
// result 11.4

// query Can you share its IC50? I mean this compound: O=C(NO)c1ccc(CNc2cccc3nccnc23)cc1
// result 5.89

// query Can you share its IC50? I mean this compound: O=C(NO)c1cccc(CNc2cccc3cccnc23)c1
// result 1130

// query Can you share its IC50? I mean this compound: O=C(NO)c1ccc(CNc2ccnc3ccccc23)cc1
// result 21.5

// query Can you share its IC50? I mean this compound: O=C(NO)c1ccc(CNc2cncc3ccccc23)cc1
// result 2.31

// query Can you share its IC50? I mean this compound: O=C(NO)c1ccc(CNc2cccc3cccnc23)cc1
// result 0.291

// query Can you share its IC50? I mean this compound: O=C(NO)c1ccc(CSc2cccc3cccnc23)cc1
// result 9.48

// query Can you share its IC50? I mean this compound: O=C(NO)c1ccc(CNc2cccc3ncccc23)cc1
// result 0.795

// query Can you share its IC50? I mean this compound: O=C(NO)c1ccc(CNc2ccc3cccnc3c2)cc1
// result 3.25

// query Can you share its IC50? I mean this compound: O=C(NO)c1ccc(C(=O)Nc2cccc3ncccc23)cc1
// result 525

// query Can you share its IC50? I mean this compound: O=C(NO)c1ccc(Nc2cccc3cccnc23)cc1
// result 129

// query Can you share its IC50? I mean this compound: O=C(NO)c1ccc(COc2cccc3cccnc23)cc1
// result 2.83

// query Can you share its IC50? I mean this compound: O=C(NO)c1ccc(CNc2cccc3c2CCCC3)cc1
// result 25.3
